target: GLP-1 Receptor (Homo sapiens, UniProt P43220); experiment: GLP-1R agonist cAMP stimulation assay (HEK293/GLP1R/CRE-LUC cells, cAMP dynamic 2 Kit); assay type: cell-based; conditions: HEK293/CRE-Luc cell line stably expressing the GLP-1 Receptor, 30 min at 37° C.
Sequence (P43220 24-463, species assumed): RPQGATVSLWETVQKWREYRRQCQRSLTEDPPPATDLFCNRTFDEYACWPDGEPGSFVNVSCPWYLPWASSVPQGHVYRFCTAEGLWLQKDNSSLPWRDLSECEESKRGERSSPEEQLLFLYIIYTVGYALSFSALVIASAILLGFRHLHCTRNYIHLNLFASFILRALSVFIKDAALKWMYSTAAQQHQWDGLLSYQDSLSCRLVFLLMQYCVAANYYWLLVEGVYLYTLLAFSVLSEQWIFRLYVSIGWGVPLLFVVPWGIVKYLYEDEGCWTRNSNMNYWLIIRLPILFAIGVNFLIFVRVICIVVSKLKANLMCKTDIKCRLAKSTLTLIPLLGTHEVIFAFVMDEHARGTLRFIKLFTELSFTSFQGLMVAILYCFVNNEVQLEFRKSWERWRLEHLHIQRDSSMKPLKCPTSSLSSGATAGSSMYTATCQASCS
pEC50: −log10 of the molar value.
METRIC: pEC50

* O=c1[nH]c(-c2ccc3c(c2)nc(CC2CC=C(c4nc(OCc5ccc(Cl)cc5F)ncc4F)CC2)n3C[C@@H]2CCO2)no1 (stereo partly shown) [Compound 242a] | 9.44
* CC1(c2ccc(Cl)cc2F)Oc2cccc(C3CCN(Cc4nc5cc(-c6noc(=O)[nH]6)ccc5n4C[C@@H]4CCO4)CC3)c2O1 (mixture of isomers) [Compound 239a] | 10.15
* Fc1cc(Cl)ccc1COc1cccc(C2CCN(Cc3nc4cc(-c5nnc(C(F)(F)F)[nH]5)cnc4n3C[C@@H]3CCO3)CC2)n1 [Compound 327a] | 10.89
* N#Cc1ccc(COc2ccc(F)c(N3CCN(Cc4nc5cc(-c6nnc(C(F)(F)F)[nH]6)nnc5n4C[C@@H]4CCO4)CC3)n2)c(F)c1 [Compound 503a] | 10.11
